Attribution: patent US9458106B2

tested on: DLD-1 (colorectal cancer); experiment: In vitro cell proliferation assay (CCK-8), DLD-1; assay type: cell-based; conditions: Homo sapiens, DLD-1 cells, 72 hours
Quantity Kind: IC50 (µM)
The reply should be a number in µM, with the unit left off.

Ask: Form field: reported IC50 of NC(=O)[C@H](Nc1cncc(-c2ccc(O)c(Cl)c2)c1)c1ccccc1
Reply: 0.604

====

In this section, each of the molecules is paired with its reported IC50.
target: CDK8/Cyclin C (Homo sapiens); assay: CDK8/Cyclin C LANCE TR-FRET kinase assay; conditions: CDK8/Cyclin C 10 nM, ATP 24 μM, Ulight-GS peptide 80 nM, 37° C. 30 mins
Quick note: number first, unit second.

Solved cases below.
Molecule: Cc1ccncc1-c1cncc(NC(C(N)=O)c2ccccc2)c1 (centres unmarked)
Experimental Target: CDK8/Cyclin C (Homo sapiens)
Value Measured: 133 nM

Molecule: NC(=O)C(Nc1cncc(-c2cc(Cl)ccc2F)c1)c1ccccc1Cl (centres unmarked)
Experimental Target: CDK8/Cyclin C (Homo sapiens)
Value Measured: 11 nM

Molecule: Cc1ccc(C(Nc2cncc(-c3cc(Cl)ccc3F)c2)C(N)=O)cc1 (centres unmarked)
Experimental Target: CDK8/Cyclin C (Homo sapiens)
Value Measured: 240 nM

Ask: For the record NC(=O)[C@@H](Nc1cncc(-c2cc(Cl)ccc2F)n1)c1ccccc1 , what value of IC50 is listed for CDK8/Cyclin C (Homo sapiens)?
Reply: 828 nM

Ask: For the record NC(=O)[C@@H](Nc1cncc(-c2ccc(O)c(Cl)c2)n1)c1ccccc1 , what value of IC50 is listed for CDK8/Cyclin C (Homo sapiens)?
Reply: 32.9 nM

====

target: CDK8/Cyclin C (Homo sapiens, UniProt P49336); assay: CDK8/Cyclin C LANCE TR-FRET kinase assay; settings: CDK8/Cyclin C 10 nM, ATP 24 μM, Ulight-GS peptide 80 nM, 37° C. 30 mins
Sequence (P49336 whole entry): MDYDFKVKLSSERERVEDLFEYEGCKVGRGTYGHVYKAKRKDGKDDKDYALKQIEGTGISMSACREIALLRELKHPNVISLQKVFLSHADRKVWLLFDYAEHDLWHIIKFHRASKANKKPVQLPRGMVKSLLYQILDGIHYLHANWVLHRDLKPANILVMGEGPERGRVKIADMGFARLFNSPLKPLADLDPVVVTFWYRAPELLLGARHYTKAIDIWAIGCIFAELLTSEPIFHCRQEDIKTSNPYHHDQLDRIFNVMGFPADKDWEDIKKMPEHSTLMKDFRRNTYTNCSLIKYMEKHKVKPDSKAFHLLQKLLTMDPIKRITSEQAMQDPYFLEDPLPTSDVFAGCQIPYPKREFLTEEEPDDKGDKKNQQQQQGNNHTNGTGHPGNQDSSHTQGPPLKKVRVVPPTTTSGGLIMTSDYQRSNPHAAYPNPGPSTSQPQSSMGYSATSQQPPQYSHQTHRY
Sequence (P24863 whole entry partner): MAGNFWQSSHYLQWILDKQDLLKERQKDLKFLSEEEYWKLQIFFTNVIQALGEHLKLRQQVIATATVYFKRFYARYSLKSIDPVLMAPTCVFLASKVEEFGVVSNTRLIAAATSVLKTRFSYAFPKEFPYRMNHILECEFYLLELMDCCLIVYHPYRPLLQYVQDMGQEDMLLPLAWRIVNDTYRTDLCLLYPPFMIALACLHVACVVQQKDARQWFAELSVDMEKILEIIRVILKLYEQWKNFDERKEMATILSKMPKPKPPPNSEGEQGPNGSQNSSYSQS
Please map values of IC50 to classes as shown: low = under 100 nM, intermediate = from 100 nM up to 600 nM, high = 600 nM and over

For orientation, consider the following solved cases.
Compound: Cc1cccc(C(Nc2cncc(-c3cc(Cl)ccc3F)c2)C(N)=O)c1 (stereo not shown)
Answer Label: intermediate

Compound: NC(=O)C(Nc1cncc(-c2cc(Cl)ccc2F)c1)c1ccccc1F (stereo not shown)
Answer Label: low

Ask: Exercise: read the entry NC(=O)C(Nc1cncc(-c2cc(Cl)ccc2F)c1)c1cccc(Cl)c1 (stereo not shown) and state which class it falls under.
Reply: intermediate

Ask: Exercise: read the entry NC(=O)C(Nc1cncc(-c2cc(Cl)ccc2F)c1)c1cc(F)ccc1F (stereo not shown) and state which class it falls under.
Reply: intermediate

Ask: Exercise: read the entry COc1cccc(-c2cncc(N[C@@H](C(N)=O)c3ccccc3)n2)c1 and state which class it falls under.
Reply: intermediate

====

In this section, each of the compounds is paired with its reported pIC50.
System: HCT116 (colorectal cancer)
Assay: In vitro cell proliferation assay (CCK-8), HCT116
Format: cell-based
Settings: Homo sapiens, HCT-116, HCT116 cells, 72 hours
Experimental: In Vitro Cell Proliferation Assay Cells were seeded on 96-well plates at 5×10^3 cells per well and precultured for 24 hours. The cells were treated with serial diluted compounds and cultured for 72 hours. Then all media was discarded and after that, 100 μL 1:10 (v/v) Cell Counting Kit-8 (CCK-8)-culture media solution was added to the wells. Plate was developed for 2 hrs in an incubator, and the absorbance was measured at 450 nm wavelengths with SpectraMAX190 (MDS, Sunnyvale, Calif.). […]
Interpret pIC50 as the negative base-10 log of the concentration measured in mol/L.

Compound String: NC(=O)[C@H](Nc1cncc(-c2cc(Cl)ccc2F)c1)c1ccccc1
pIC50: 5.58

Turning now to a further record.
Ask: Form field: reported pIC50 of NC(=O)[C@H](Nc1cncc(-c2ccc(O)c(Cl)c2)c1)c1ccccc1
Reply: 6.13
